Test: Oral bioavailability in Beagle dog at 2 mg/kg
Format: ADME, organism-based, Canis lupus familiaris
Details: in vivo

MOLECULE	bioavailability (%)
CC(C)(C)[C@@H]1NC(=O)O[C@@H]2CCC[C@H]2OC/C=C/C(F)(F)c2nc3ccccc3nc2O[C@@H]2C[C@@H](C(=O)N[C@]3(C(=O)NS(=O)(=O)C4(C)CC4)C[C@H]3C(F)F)N(C2)C1=O	95
COc1ccc2nc3c(nc2c1)O[C@@H]1CC2C(=O)N[C@]4(C(=O)NS(=O)(=O)C5(C)CC5)C[C@@H]4/C=C/CCCCC[C@H](NC(=O)O[C@@H]4CCC[C@H]4CCCCC3)C(=O)N2C1 (stereo not given in full)	12
CCC[C@H](NC(=O)[C@@H]1[C@H]2CCC[C@H]2CN1C(=O)[C@@H](NC(=O)[C@@H](NC(=O)c1cnccn1)C1CCCCC1)C(C)(C)C)C(=O)C(=O)NC1CC1	40.7
C=C[C@@H]1C[C@]1(NC(=O)[C@@H]1C[C@@H]2CN1C(=O)[C@H](C1CCCC1)NC(=O)O[C@@H]1CCC[C@H]1CCCCCn1c(nc3cc(OC)ccc3c1=O)O2)C(=O)NS(=O)(=O)C1(C)CC1	27
Cc1cnc(C(=O)N[C@H]2CCCCC/C=C\[C@@H]3C[C@@]3(C(=O)NS(=O)(=O)C3CC3)NC(=O)[C@@H]3C[C@@H](Oc4nc5ccccc5c5ccccc45)CN3C2=O)cn1	41

----------
Molecular target: Non-structural protein 4b (Hepacivirus hominis)
Sequence (F5B4I0 whole entry): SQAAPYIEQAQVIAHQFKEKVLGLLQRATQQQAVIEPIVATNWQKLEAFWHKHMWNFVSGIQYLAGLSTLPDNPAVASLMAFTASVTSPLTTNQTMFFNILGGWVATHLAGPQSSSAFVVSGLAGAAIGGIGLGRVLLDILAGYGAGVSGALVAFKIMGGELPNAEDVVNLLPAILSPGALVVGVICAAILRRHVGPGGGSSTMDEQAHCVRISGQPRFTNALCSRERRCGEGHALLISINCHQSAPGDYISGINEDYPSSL
Assay: Inhibition of Hepatitis C virus genotype 1b NS4B
Some molecules, each annotated with its measured log10 of IC50.
READOUT NAME: log10 of IC50 (log10 of the value in nM)

SMILES ENTRY	log10 of IC50
CC(C)Oc1ccc(-c2nc(O[C@@H]3C[C@H]4C(=O)N[C@]5(C(=O)NS(=O)(=O)C6(C)CC6)C[C@H]5/C=C\CCCCC[C@H](NC(=O)OC5CCCC5)C(=O)N4C3)c3oc4ccccc4c3n2)cc1	-0.22
CC(C)(C)[C@@H]1NC(=O)O[C@@H]2CCC[C@H]2OC/C=C/C(F)(F)c2nc3ccccc3nc2O[C@@H]2C[C@@H](C(=O)N[C@]3(C(=O)NS(=O)(=O)C4(C)CC4)C[C@H]3C(F)F)N(C2)C1=O	0.95
Cc1nc2ccccc2c2c1O[C@]1(CC2)C[C@H]2C(=O)N[C@]3(C(=O)NS(=O)(=O)C4(C)CC4)C[C@H]3/C=C/CCCCC[C@H](NC(=O)OC(C)(C)C)C(=O)N2C1	-1.89
CCC[C@H](NC(=O)[C@@H]1[C@H]2CCC[C@H]2CN1C(=O)[C@@H](NC(=O)[C@@H](NC(=O)c1cnccn1)C1CCCCC1)C(C)(C)C)C(=O)C(=O)NC1CC1	2.55
C=C[C@@H]1C[C@]1(NC(=O)[C@@H]1C[C@@H](Oc2cc3ccccc3cn2)CN1C(=O)[C@@H](NC(=O)OCC(C)C)C(C)(C)C)C(=O)NS(=O)(=O)C1(C)CC1	0.43
C=C[C@@H]1C[C@]1(NC(=O)[C@@H]1C[C@]2(CCc3c(c(C)nc4ccccc34)O2)CN1C(=O)[C@@H](NC(=O)OC(C)(C)C)C(C)(C)C)C(=O)NS(=O)(=O)C1(C)CC1	-1.48
CC[C@@H]1C[C@]1(NC(=O)[C@@H]1C[C@@H]2CN1C(=O)[C@H](C(C)(C)C)NC(=O)OCC(C)(C)CCCCc1cccc3c1CN(C3)C(=O)O2)C(=O)NS(=O)(=O)C1CC1	0.48

----------
System: Hepatitis C virus
Experiment: Antiviral activity against Hepatitis C virus infected in human Huh7.5 cells pretreated […] for 2 hrs followed by viral infection for 1 hrs by plaque assay
Type: functional, organism-based, Hepacivirus hominis

SMILES ENTRY	READING UNIT	EC50
CCC[C@H](NC(=O)[C@@H]1[C@H]2CCC[C@H]2CN1C(=O)[C@@H](NC(=O)[C@@H](NC(=O)c1cnccn1)C1CCCCC1)C(C)(C)C)C(=O)C(=O)NC1CC1	µM	0.015

----------
Some compounds, each annotated with its measured pIC50.
Molecular target: Non-structural protein 4b (Hepacivirus hominis)
Experiment: Inhibition of Hepatitis C virus genotype 3a NS4B
pIC50: −log10 of the molar value.

COMPOUND	pIC50
C=C[C@@H]1C[C@]1(NC(=O)[C@@H]1C[C@@H](Oc2cc3ccccc3cn2)CN1C(=O)[C@@H](NC(=O)OCC(C)C)C(C)(C)C)C(=O)NS(=O)(=O)C1(C)CC1	6.37
C=C[C@@H]1C[C@]1(NC(=O)[C@@H]1C[C@]2(CCc3c(c(C)nc4ccccc34)O2)CN1C(=O)[C@@H](NC(=O)OC(C)(C)C)C(C)(C)C)C(=O)NS(=O)(=O)C1(C)CC1	8.24
COc1ccc2nc(C(F)(F)F)c3c(c2c1)CC[C@]1(C[C@H]2C(=O)N[C@]4(C(=O)NS(=O)(=O)C5(C)CC5)C[C@H]4/C=C/CCCCCC(NC(=O)OC(C)(C)C)C(=O)N2C1)O3 (stereo partly drawn)	9.33

----------
Molecular target: Hepatitis C virus NS5B RNA-dependent RNA polymerase (Hepatitis C virus)
Sequence (Q8JXU8 whole entry): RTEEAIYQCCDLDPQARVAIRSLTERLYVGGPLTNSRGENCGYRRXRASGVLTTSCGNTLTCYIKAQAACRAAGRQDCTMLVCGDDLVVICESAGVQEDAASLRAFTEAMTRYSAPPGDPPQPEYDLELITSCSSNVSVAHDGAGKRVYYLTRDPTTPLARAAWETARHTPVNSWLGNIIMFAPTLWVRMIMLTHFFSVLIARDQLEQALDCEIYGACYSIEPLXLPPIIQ
READOUT NAME: Ki (nM)

SMILES ENTRY	READOUT NAME	REPORTED MEASUREMENT
CC(C)(C)[C@@H]1NC(=O)O[C@@H]2CCC[C@H]2OC/C=C/C(F)(F)c2nc3ccccc3nc2O[C@@H]2C[C@@H](C(=O)N[C@]3(C(=O)NS(=O)(=O)C4(C)CC4)C[C@H]3C(F)F)N(C2)C1=O	Ki	0.053

----------
Molecular target: Non-structural protein 4b (Hepacivirus hominis, UniProt F5B4I0)
Experiment: Binding affinity to Hepatitis C virus genotype 1a NS4B assessed as inhibition constant
pKi: −log10 of the molar value.

MOLECULE	pKi
COc1ccc2nc3c(nc2c1)O[C@@H]1CC2C(=O)N[C@]4(C(=O)NS(=O)(=O)C5(C)CC5)C[C@@H]4/C=C/CCCCC[C@H](NC(=O)O[C@@H]4CCC[C@H]4CCCCC3)C(=O)N2C1 (stereo not given in full)	11.30
CC(C)(C)NC(=O)N[C@H](C(=O)N1C[C@H]2[C@@H]([C@H]1C(=O)NC(CC1CCC1)C(=O)C(N)=O)C2(C)C)C(C)(C)C (stereo not given in full)	8.22
CC(C)(C)[C@@H]1NC(=O)O[C@@H]2CCC[C@H]2OC/C=C/C(F)(F)c2nc3ccccc3nc2O[C@@H]2C[C@@H](C(=O)N[C@]3(C(=O)NS(=O)(=O)C4(C)CC4)C[C@H]3C(F)F)N(C2)C1=O	10.12
C=C[C@@H]1C[C@]1(NC(=O)[C@@H]1C[C@@H]2CN1C(=O)[C@H](C1CCCC1)NC(=O)O[C@@H]1CCC[C@H]1CCCCCn1c(nc3cc(OC)ccc3c1=O)O2)C(=O)NS(=O)(=O)C1(C)CC1	11.05
CC(C)(C)OC(=O)N[C@H]1CCCCC/C=C\[C@@H]2C[C@@]2(C(=O)NS(=O)(=O)C2CC2)NC(=O)[C@@H]2C[C@@H](OC(=O)N3Cc4cccc(F)c4C3)CN2C1=O	9.00

----------
Test: AUC (0 to infinity) in liver to plasma of Sprague-Dawley rat at 3 mg/kg,po
Assay type: ADME, organism-based
Settings: in vivo
Some compounds, each annotated with its measured AUC.

COMPOUND	READING UNIT	BOUND SIGN	AUC
COc1ccc2nc3c(nc2c1)O[C@@H]1CC2C(=O)N[C@]4(C(=O)NS(=O)(=O)C5(C)CC5)C[C@@H]4/C=C/CCCCC[C@H](NC(=O)O[C@@H]4CCC[C@H]4CCCCC3)C(=O)N2C1 (some centres undefined)	µM·h	=	2470
C=C[C@@H]1C[C@]1(NC(=O)[C@@H]1C[C@@H](Oc2cc(-c3ccccc3)nc3cc(OC)ccc23)CN1C(=O)[C@@H](CC(=O)N1CCCCC1)C(C)(C)C)C(=O)NS(=O)(=O)C1CC1	µM·h	>	505
C=C[C@@H]1C[C@]1(NC(=O)[C@@H]1C[C@@H]2CN1C(=O)[C@H](C1CCCC1)NC(=O)O[C@@H]1CCC[C@H]1CCCCCn1c(nc3cc(OC)ccc3c1=O)O2)C(=O)NS(=O)(=O)C1(C)CC1	µM·h	=	2420
C=C[C@@H]1C[C@]1(NC(=O)[C@@H]1C[C@@H](Oc2cc(-c3csc(NC(=O)C(C)C)n3)nc3c(Br)c(OC)ccc23)CN1C(=O)[C@@H](NC(=O)OC1CCCC1)C(C)(C)C)C(=O)O	µM·h	=	40
